Reference for the values: ChEMBL document CHEMBL2375244

biological target: CDK2/Cyclin A2 (Homo sapiens); assay: Inhibition of human CDK2/Cyclin A2 using PKTPKKAKKL as substrate by fluorescence assay; type: protein-complex assay
experimental_endpoint: IC50 (nM)

smiles_input	IC50 / nM
COc1cccc(C(=O)c2sc(Nc3ccc(S(N)(=O)=O)cc3)nc2N)c1	100

(a) Nc1nc(NC2CCCCC2)sc1C(=O)c1cccnc1
(b) Nc1nc(Nc2ccc(S(N)(=O)=O)cc2)sc1C(=O)c1ccccc1
Lab note: record which item had the higher IC50, a or b . Your answer should be the label attached to the chosen record.
a
(a: 380 nM, b: 130 nM)

* * *

molecular target: CDK2/Cyclin A2 (Homo sapiens); assay: Inhibition of human CDK2/Cyclin A2 using PKTPKKAKKL as substrate by fluorescence assay; type: protein-complex assay
experimental_endpoint: IC50 (µM)

smiles_input	IC50, µM
CC(C)Nc1nc(N)c(C(=O)c2cccnc2)s1	0.52
Nc1nc(Nc2ccc(S(N)(=O)=O)cc2)sc1C(=O)c1cccnc1	0.02
Nc1nc(Nc2ccc(S(N)(=O)=O)cc2)sc1C(=O)c1ccc(S(N)(=O)=O)cc1	0.07

(A) Nc1cccc(C(=O)c2sc(Nc3ccc(S(N)(=O)=O)cc3)nc2N)c1
(B) Nc1nc(Nc2ccc(S(N)(=O)=O)cc2)sc1C(=O)c1ccccc1[N+](=O)[O-]
Sorting ascending by IC50, which comes first: A or B ? Your answer should be the label attached to the chosen record.
B
(B: 0.02 µM, A: 0.07 µM)

* * *

molecular target: Cyclin-dependent kinase 5/CDK5 activator 1 (Homo sapiens, UniProt Q00535); experiment: Inhibition of CDK5/P25 (unknown origin)-mediated phosphorylation of peptide substrate incubated for 15 mins prior to substrate addition measured after 90 mins by P33-radiolabeled assay
Sequence (Q00535 whole entry): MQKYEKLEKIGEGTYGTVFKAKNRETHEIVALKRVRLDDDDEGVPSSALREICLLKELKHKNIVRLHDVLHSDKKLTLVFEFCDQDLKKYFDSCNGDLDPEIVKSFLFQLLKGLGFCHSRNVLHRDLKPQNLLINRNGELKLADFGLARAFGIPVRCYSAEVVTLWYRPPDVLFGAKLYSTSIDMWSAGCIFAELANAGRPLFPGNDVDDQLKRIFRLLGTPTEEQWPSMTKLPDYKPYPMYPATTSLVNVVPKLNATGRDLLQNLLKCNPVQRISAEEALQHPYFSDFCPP
Sequence (Q15078 whole entry, further chain): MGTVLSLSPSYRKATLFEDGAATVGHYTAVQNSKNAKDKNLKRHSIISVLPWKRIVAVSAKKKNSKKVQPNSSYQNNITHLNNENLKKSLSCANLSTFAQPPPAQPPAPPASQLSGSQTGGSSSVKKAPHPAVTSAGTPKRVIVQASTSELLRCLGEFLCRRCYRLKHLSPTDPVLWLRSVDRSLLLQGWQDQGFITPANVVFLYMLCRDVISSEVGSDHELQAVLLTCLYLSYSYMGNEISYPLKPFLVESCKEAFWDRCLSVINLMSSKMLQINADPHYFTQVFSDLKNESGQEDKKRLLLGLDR
experimental_endpoint: pIC50
pIC50 is defined as minus the log10 of a concentration measured in mol/L.

Give the reported value of pIC50 for this record: "Nc1nc(Nc2ccc(S(N)(=O)=O)cc2)sc1C(=O)c1ccccc1[N+](=O)[O-]"
8.82

* * *

molecular target: CDK2/Cyclin A1 (Homo sapiens); test: Inhibition of CDK2/Cyclin A1 (unknown origin)-mediated phosphorylation of peptide substrate incubated for 15 mins prior to substrate addition measured after 90 mins by P33-radiolabeled assay
experimental_endpoint: IC50 (nM)
Just the number in nM, nothing appended.

Give the reported value of IC50 for this record: "Nc1nc(Nc2ccc(S(N)(=O)=O)cc2)sc1C(=O)c1ccccc1[N+](=O)[O-]"
1.8

* * *

target: CDK2/Cyclin A2 (Homo sapiens, UniProt P24941); assay: Inhibition of human CDK2/Cyclin A2 using PKTPKKAKKL as substrate by fluorescence assay; assay type: protein-complex assay
experimental_endpoint: IC50 (nM)

Sample records with IC50:
smiles_input	assay_target	units_label	IC50
Nc1nc(Nc2ccc(S(N)(=O)=O)cc2)sc1C(=O)c1cccc([N+](=O)[O-])c1	CDK2/Cyclin A2 (Homo sapiens, UniProt P24941)	nM	70
Nc1nc(Nc2ccc(S(N)(=O)=O)cc2)sc1C(=O)c1cccc(F)c1	CDK2/Cyclin A2 (Homo sapiens, UniProt P24941)	nM	50
NC(=O)c1ccc(Nc2nc(N)c(C(=O)c3cccnc3)s2)cc1	CDK2/Cyclin A2 (Homo sapiens, UniProt P24941)	nM	200
Nc1nc(Nc2ccc(S(N)(=O)=O)cc2)sc1C(=O)c1cccc(C(F)(F)F)c1	CDK2/Cyclin A2 (Homo sapiens, UniProt P24941)	nM	570

(A) Nc1nc(Nc2ccccc2)sc1C(=O)c1cccnc1
(B) Nc1nc(Nc2ccccc2)sc1C(=O)c1ccccc1
Sorting ascending by IC50, which comes first: A or B ? Your answer should be the label attached to the chosen record.
A
(A: 650 nM, B: 930 nM)
